Entry source: PubChem BioAssay (NCATS)

# experimental_target: Thyroid hormone receptor beta (Homo sapiens)
# assay_comment: qHTS assay for small molecule antagonists of thyroid hormone receptor beta signaling (AID 588547);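 further: cells stimulated with 0.4 nM T3 agonist during compound exposure; series mostly up to about 77 µM; on the % scale 0 is the no-effect control and ±100 the full control effect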
# test_parameters: TR-UAS-bla HEK293, beta-lactamase ratio, antagonist mode, 18 h
Results filed as inconclusive are left out.
observation_type: activity change % (negative = inhibition) (%)
Numbers only, in %.

Here are 6 compounds together with their reported answers.
>>> experimental_value("Cc1ccc(S(=O)(=O)O)cc1C")
-0.818
>>> experimental_value("CCCCC(CC)COS(=O)(=O)O (stereo unspecified)")
9.71
>>> experimental_value("[O-][N+](=Nc1ccccc1)c1ccccc1")
7.57
>>> experimental_value("NCCO/C=C/[C@H](N)C(=O)O")
19.7
>>> experimental_value("NC(N)=O")
-11.3
>>> experimental_value("CC(C)CCC[C@@H](C)[C@H]1CC[C@H]2[C@@H]3CC=C4C[C@@H](O)CC[C@]4(C)[C@H]3CC[C@]12C")
-1.74

Could you tell me activity change % (negative = inhibition) for each of these compounds? They are listed below.
1. OCc1ccccc1
2. CN(CCO)CC(O)Cn1cnc2c1c(=O)n(C)c(=O)n2C (stereo unspecified) (tested in a mixture with another compound)
3. O=C(OCc1ccccc1)c1ccc(O)cc1
4. C/C=C/C=C/C(=O)O
5. ClC(Cl)Cl

Result string:
1: -15.9; 2: 12.1; 3: 27.2; 4: 1.05; 5: -7.48
